# Test system: Sphingosine kinase 2 (Homo sapiens)
# Sequence (Q9NRA0 whole entry): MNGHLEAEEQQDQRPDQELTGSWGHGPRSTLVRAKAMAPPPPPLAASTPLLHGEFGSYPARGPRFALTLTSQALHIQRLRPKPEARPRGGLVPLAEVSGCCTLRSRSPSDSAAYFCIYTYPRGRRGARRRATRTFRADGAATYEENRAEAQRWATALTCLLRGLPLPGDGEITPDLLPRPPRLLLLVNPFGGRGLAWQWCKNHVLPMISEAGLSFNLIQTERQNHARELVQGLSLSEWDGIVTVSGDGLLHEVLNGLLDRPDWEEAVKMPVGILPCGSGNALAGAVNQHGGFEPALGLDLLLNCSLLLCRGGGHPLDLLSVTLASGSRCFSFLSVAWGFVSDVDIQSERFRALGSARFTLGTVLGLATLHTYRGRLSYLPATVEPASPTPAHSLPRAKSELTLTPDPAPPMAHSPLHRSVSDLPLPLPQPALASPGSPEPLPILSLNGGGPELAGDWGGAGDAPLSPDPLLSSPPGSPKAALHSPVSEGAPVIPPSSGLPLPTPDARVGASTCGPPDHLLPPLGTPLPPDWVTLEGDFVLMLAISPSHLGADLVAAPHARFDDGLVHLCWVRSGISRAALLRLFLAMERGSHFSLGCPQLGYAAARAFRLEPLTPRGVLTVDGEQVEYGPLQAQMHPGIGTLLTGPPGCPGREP
# Assay remarks: Inhibition of human SK2 using D-erythro sphingosine as substrate and gamma[33P]ATP by Lineweaver-Burk plot analysis
Reported metric: Ki (µM)

structure_smiles_string=Cc1ccc(S(=O)(=O)Nc2ccccc2/C=N/c2ccccc2NS(=O)(=O)c2ccc(C)cc2)cc1 experimental_value=6.9

* * *

# Test system: Sphingolipid delta(4)-desaturase DES1 (Homo sapiens)
# Assay remarks: Inhibition of Des1 activity in human Jurkat cells using fluorescence labeled DhCer-C6-NBD as substrate at 0.1 to 10 uM after 3 hrs by HPLC method
# Format: cell-based
The source made the active and inactive calls. No cut-off for these calls is given here.
Possible outcomes: active, inactive

structure_smiles_string=Oc1ccc(Nc2nnc(-c3ccc(Cl)cc3)o2)cc1 class_label=active
structure_smiles_string=Oc1ccc(Nc2nc(-c3ccc(Cl)cc3)cs2)cc1 class_label=active
structure_smiles_string=Oc1ccc(Nc2nnc(-c3ccc(I)cc3)o2)cc1 class_label=active
structure_smiles_string=Oc1ccc(-c2nnc(-c3ccc(Cl)cc3)o2)cc1 class_label=inactive

* * *

# Test system: Sphingosine kinase 2 (Homo sapiens)
# Assay remarks: Inhibition of recombinant human SK2 assessed as production of [32P] S1P using sphingosine as substrate at 10 uM by TLC method in presence of 100 uM [gamma32P]-ATP relative to control; values are per cent of control
Items are presented alongside their recorded residual activity.
Reported metric: residual activity

structure_smiles_string=Oc1ccc(Nc2nc(-c3ccc(Cl)cc3)cs2)cc1 experimental_value=90%
structure_smiles_string=Clc1ccc(-c2nnc(Nc3ccc(-c4nn[nH]n4)cc3)o2)cc1 experimental_value=70%
structure_smiles_string=Cc1cc(CS(=O)(=O)c2ccccc2)cc(OCc2ccc(CN3CCC[C@@H]3CO)cc2)c1 experimental_value=45%
structure_smiles_string=CCCCCCCc1nc(-c2ccc(CNC(=O)[C@H]3NCC[C@@H]3O)cc2)no1 experimental_value=112%
structure_smiles_string=Clc1ccc(-c2nnc(NCc3ccncc3)o2)cc1 experimental_value=39%

From: ChEMBL document CHEMBL3763012
